system: MDA-MB-435; experiment: NCI tumour cell line growth inhibition, 48 h
Calls of active or inactive are those of the source. Rule as the data show it: active = GI50 up to about 1.1 µM and inactive = higher.
Select the matching outcome among true (1) = active, false (0) = inactive

[[record]]
molecule = "C=C1C[C@@H]2CC[C@@]34CC5O[C@H]6C(O[C@H]7CC[C@H](CC(=O)O[C@@H]8[C@@H](C)[C@@H]9O[C@@H]%10C[C@]%11(C[C@@H]%12O[C@]%13(C[C@H](C)[C@@H]%14O[C@@H]%15CC(C(COC(C)=O)OC(C)=O)O[C@@H]%15C[C@@H]%14O%13)C[C@H](C)[C@@H]%12O%11)O[C@@H]%10C[C@@H]9O[C@H]8CC8O[C@@H](CC[C@@H]1O2)C[C@@H](C)C8(O)CO)O[C@@H]7[C@@H]6O3)[C@H]5O4 (stereo partly specified)"
qualitative_label = "true (1)"

[[record]]
molecule = "CC(=O)Nc1cc2c3c(c1)CCCN3CCC2"
qualitative_label = "false (0)"

[[record]]
molecule = "N#Cc1nc(C#N)n(S(=O)(=O)c2ccccc2)c1NS(=O)(=O)c1ccccc1"
qualitative_label = "false (0)"


Problem: Called result for Cc1ccc(/C=C/C(=O)c2cc(CN(C)C)c(O)c(CN(C)C)c2)cc1
Solution: false (0)

Problem: Another molecule: CCOC(=O)/C1=C(\C)N(c2ccc(C)cc2)C(=O)c2ccccc2C(=O)c2c(O)ccc(O)c21
Solution: false (0)

Problem: Try this molecule next: C=C1CC2CC[C@@]34C[C@H]5O[C@@H]6C(O[C@H]7CC[C@H](CC(=O)OC8[C@H](C)C9OC%10C[C@]%11(C[C@@H]%12O[C@]%13(C[C@H](C)[C@@H]%14O[C@H]([C@H](O)C[C@H](O)CO)C[C@@H]%14O%13)C[C@H](C)[C@@H]%12O%11)OC%10CC9O[C@H]8C[C@H]8O[C@H](CC[C@@H]1O2)C[C@@H](C)C8=C)O[C@H]7[C@@H]6O3)[C@@H]5O4 (stereo partly specified)
Solution: true (1)

Problem: Can you handle Nc1nc(Cl)c(N)c(NCC2(CO)CCCC2)n1 next?
Solution: false (0)

Problem: Now give it for Cc1ccc(S(=O)(=O)NN=C2C(C)(C)CC2(C)C)cc1 too.
Solution: false (0)

Problem: Next up: CC1(C)CCSC(/C=C/c2ccccc2)=N1
Solution: false (0)

Problem: Same lookup for CCOC(=O)[C@@H]1[C@@H](c2ccccc2)N(C)O[C@@]1(c1ccccc1)C(F)(F)F , please.
Solution: false (0)

Problem: What about CCN1c2nc3ccccc3nc2N(CC)c2nc3ccccc3nc21 ?
Solution: false (0)

Data origin: ChEMBL document CHEMBL1201862
